Sourced from PubChem BioAssay (NCATS)

Experiment: Quantitative High-Throughput drug screen in 47 multiple myeloma cell lines against the NCATS MIPE library collection: VP6_DJ cell viability assay (AID 1919867); note: nearly all actives have a fitted effect of over 40% in size
Conditions: ATP luminescence, 48 h; series mostly up to 45.8 µM
From the text: PI: Beverly A. Mock Ph.D. Laboratory of Cancer Biology and Genetics, Center for Cancer Research, National Cancer Institute, National Institute of Health, Bethesda, Maryland […] 5; Detector; 425V; Luminescence; Viewlux PerkinElmer. […] 1. […] Briefly, the corresponding myeloma cell lines were screened in 1,536-well plates with 500 cells, 5-uL per well for inhibition of cell viability (assessed by measuring ATP levels with CellTiterGlo). […]
Results filed as inconclusive are left out. Calls of active or inactive are those of the source. Calls come from the whole dose curve; as a rule, active = well fitted cell-killing curve with a large enough effect; inconclusive = small, poorly fitted or top-dose-only effect, or effect the other way; inactive = no such curve, though single readings can be large or run the other way.
Permitted responses: T = active, F = inactive

CNC(=O)c1ccc(N2C(=S)N(c3ccc(C#N)c(C(F)(F)F)c3)C(=O)C23CCC3)cc1F
T
CNC(=O)N1N=C(c2ccc(N)cc2)c2cc3c(cc2CC1C)OCO3 (stereo not given)
T

IN: In this assay, the call recorded for `C[C@@H]1O[C@@H](O[C@H]2C[C@@H](O)[C@]3(CO)[C@H]4[C@H](O)C[C@]5(C)[C@@H](C6=CC(=O)OC6)CC[C@]5(O)[C@@H]4CC[C@]3(O)C2)[C@H](O)[C@H](O)[C@H]1O` was what?
OUT: T

IN: Now the molecule CCCC(C)(COC(N)=O)COC(=O)NC(C)C (stereo not given)
OUT: F

IN: // same read-out, input: C[C@@H]1[C@@H](CC(C[C@H]2O[C@@H]3O[C@]4(C)CC[C@@H]5[C@H](C)CC[C@@H]([C@H]2C)[C@@]35OO4)C[S+](=O)([O-])c2ccc(COC(=O)N(C)C)cc2)O[C@@H]2O[C@]3(C)CC[C@H]4[C@H](C)CC[C@@H]1[C@@]24OO3 (stereo not given in full)
OUT: T

IN: Same read-out for COc1ccc2c(c1OC)CN1CCc3cc4c(cc3C1C2)OCO4 (stereo not given) ?
OUT: T

IN: Continue with `C=C(C)[C@H]1Cc2c(ccc3c2O[C@@H]2COc4cc(OC)c(OC)cc4[C@@H]2C3=O)O1`
OUT: T

IN: What do you get for `COC[C@@H](NC(C)=O)C(=O)NCc1ccccc1` ?
OUT: F

IN: Request: `O=c1[nH]c2ccccc2n1CCCN1CCC(n2c(=O)[nH]c3cc(Cl)ccc32)CC1`
OUT: T

IN: For `Cn1cc(C2=C(c3cn(C4CCN(Cc5ccccn5)CC4)c4ccccc34)C(=O)NC2=O)c2ccccc21` then?
OUT: T

###

Assay: Quantitative High-Throughput drug screen in 47 multiple myeloma cell lines against the NCATS MIPE library collection: KHM11_PLB cell viability assay (AID 1918962); note: nearly all actives have a fitted effect of over 35% in size
Details: KHM11 myeloma cell viability, CellTiter-Glo ATP luminescence, 48 h; series mostly up to 45.8 µM
Records with an inconclusive call do not appear. Activity calls are given as the source filed them. The call rests on the fitted dose curve; in most records, active means well fitted cell-killing curve with a large enough effect; inconclusive means small, poorly fitted or top-dose-only effect, or effect the other way; inactive means no such curve, though single readings can be large or run the other way.
Just give me one of these, please: Y for active, N for inactive

Please review the entries below; each comes with its answer.
CNC(=O)N1N=C(c2ccc(N)cc2)c2cc3c(cc2CC1C)OCO3 (centres undefined)
Y
O=c1[nH]c2ccccc2n1CCCN1CCC(n2c(=O)[nH]c3cc(Cl)ccc32)CC1
N
COc1ccc(C(=O)c2c(C)n(CCN3CCOCC3)c3ccccc23)cc1
N
C[C@@H]1[C@@H](C(=O)C[C@H]2O[C@@H]3O[C@]4(C)CC[C@@H]5[C@H](C)CC[C@@H]([C@H]2C)[C@@]35OO4)O[C@@H]2O[C@]3(C)CC[C@H]4[C@H](C)CC[C@@H]1[C@@]24OO3
Y
CC(O)(CS(=O)(=O)c1ccc(F)cc1)C(=O)Nc1ccc(C#N)c(C(F)(F)F)c1 (centres undefined)
Y
C#CCN(C)[C@H](C)Cc1ccccc1
N
Cc1sc2c(c1C)C(c1ccc(Cl)cc1)=N[C@@H](CC(=O)OC(C)(C)C)c1nnc(C)n1-2
Y
COC1(CS(=O)c2ccccc2)CCN(CCc2c[nH]c3ccc(F)cc23)CC1 (centres undefined)
N

Next item in the queue.
IN: Tell me the recorded outcome of this test for COC[C@H]1OC(=O)c2coc3c2[C@@]1(C)C1=C(C3=O)C2CCC(=O)[C@@]2(C)C[C@H]1OC(C)=O (some centres undefined) .
OUT: Y
